src = ChEMBL document CHEMBL1148435

// values below are reported Inhibition
tested on: Mus musculus; assay: Antinociceptive activity was assessed using the mouse abdominal irritant test (MAIT), at a dose of 150 uM/Kg (po); type: functional, Abdomen
Quantity Kind: Inhibition (%)

- CCN(CC)C(=O)c1ccc(/C(=C2\C[C@H]3CC[C@@H](C2)N3C)c2ccccc2)cc1: 80
- CCCN1C2CCC1CC(=C(c1ccccc1)c1ccc(C(=O)N(CC)CC)cc1)C2: 93.3
- CCN(CC)C(=O)c1ccc(C(=C2CC3CCC(C2)N3CCc2ccc(F)cc2)c2ccccc2)cc1: 26.7
- CCN(CC)C(=O)c1ccc(/C(=C2/C[C@H]3CC[C@@H](C2)N3CCc2ccccc2)c2ccccc2)cc1: 90
